# key: entry, value: IC50
# System: COLO 205 colorectal tumor cells
# assay_procedure: Tumor cell viability inhibition assay (CellTiter-Glo 2.0, 72 hours)
# Type: cell-based
# measurement_setup: Homo sapiens, COLO 205, 72 h, COLO 205 cell viability

{"columns": ["molecule", "IC50"],
 "data": [
  ["Cc1cc(-c2cc(Cl)ccc2OCCn2c(C)nc3c(c2=O)C[C@H](N2CCC[C@@H](C(F)(F)F)C2)CC3)c2scc(C(=O)O)c2n1 (single isomer, unassigned) [Compound 382]", "< 5 µM"],
  ["Cc1cc(-c2cc(Cl)ccc2OCCn2c(C)nc3c(c2=O)CC2(CC3)CCN(C3CC3)CC2)c2scc(C(=O)O)c2n1 [Compound 267]", "5 to 20 µM"]
]}

Observed IC50 on COLO 205 colorectal tumor cells for Cc1cc(-c2cc(Cl)ccc2OCCn2c(C)nc3c(c2=O)C[C@@H](N2CCC(c4noc5ccc(F)cc45)CC2)CC3)c2scc(C(=O)O)c2n1 (single isomer, unassigned) [Compound 449] , please. < 5 µM

Quick one: Cc1cc(-c2cc(Cl)ccc2OCCn2c(C)nc3c(c2=O)CC(N(C)Cc2cccs2)CC3)c2scc(C(=O)O)c2n1 (centres unmarked) [Compound 197] < 5 µM

Quick one: Cc1cc(-c2cc(Cl)ccc2OCCn2c(C)nc3c(c2=O)C[C@H](N(C)[C@H]2CC[C@](C)(O)CC2)CC3)c2scc(C(=O)NS(C)(=O)=O)c2n1 (single isomer, unassigned) [Compound 207] > 20 µM

====

# Tested on: COLO 205 colorectal tumor cells
# assay_procedure: Tumor cell viability inhibition assay (CellTiter-Glo 2.0, 72 hours)
# Format: cell-based
# measurement_setup: Homo sapiens, COLO 205, 72 h, COLO 205 cell viability
# key: entry, value: IC50

Quick one: IC50 of Cc1cc(-c2cc(Cl)ccc2OCCn2c(C)nc3c(c2=O)CC(N(C)CC2CC(F)(F)C2)CC3)c2scc(C(=O)O)c2n1 (single isomer, unassigned) [Compound 258] ? < 5 µM

Quick one: Cc1cc(-c2cc(Cl)ccc2OCCn2c(C)nc3c(c2=O)C[C@H](N2CCC(c4cn(C)cn4)CC2)CC3)c2scc(C(=O)O)c2n1 (single isomer, unassigned) > 20 µM

Quick one: Cc1cc(-c2cc(Cl)ccc2OCCn2c(C)nc3c(c2=O)C[C@H](N2CCC(c4ccccc4OC(F)(F)F)CC2)CC3)c2scc(C(=O)O)c2n1 (single isomer, unassigned) < 5 µM

====

# System: COLO 205 colorectal tumor cells
# assay_procedure: Tumor cell viability inhibition assay (CellTiter-Glo 2.0, 72 hours)
# Format: cell-based
# measurement_setup: Homo sapiens, COLO 205, 72 h, COLO 205 cell viability
# key: entry, value: IC50

See these solved cases before continuing.
{"columns": ["compound", "system_tested", "result"],
 "data": [
  ["Cc1cc(-c2cc(Cl)ccc2OCCn2c(C)nc3c(c2=O)C[C@H](N(C)C[C@H]2C[C@H](C(F)(F)F)C2)CC3)c2scc(C(=O)O)c2n1 (single isomer, unassigned)", "COLO 205 colorectal tumor cells", "< 5 µM"],
  ["Cc1cc(-c2cc(Cl)ccc2OCCn2c(C)nc3c(c2=O)C(C)(C)C(N)CC3)c2scc(C(=O)O)c2n1 (stereo not drawn)", "COLO 205 colorectal tumor cells", "> 20 µM"],
  ["Cc1cc(-c2cc(Cl)ccc2OCCn2c(C)nc3c(c2=O)CC(N(C)C(=O)C2CCN(CC(F)(F)F)CC2)CC3)c2scc(C(=O)O)c2n1 (stereo not drawn)", "COLO 205 colorectal tumor cells", "> 20 µM"],
  ["Cc1cc(-c2cc(Cl)ccc2OCCn2c(C)nc3c(c2=O)CC(N(C2CCC2)C2CC(F)(F)C2)CC3)c2scc(C(=O)NS(C)(=O)=O)c2n1 (stereo not drawn)", "COLO 205 colorectal tumor cells", "< 5 µM"],
  ["Cc1cc(-c2cc(Cl)ccc2OCCn2c(C)nc3c(c2=O)CC(N(C)C)CO3)c2scc(C(=O)O)c2n1 (stereo not drawn)", "COLO 205 colorectal tumor cells", "5 to 20 µM"]
]}

Attention now turns to another entry.
Quick one: IC50 of Cc1nc2c(c(=O)n1CC#Cc1ccc(Cl)cc1-c1ccnc3c(C(=O)NS(C)(=O)=O)csc13)C[C@H](N1CC[C@@H](F)C1)CC2 (single isomer, unassigned) ? < 5 µM
